molecular target: VMAT2 (Rattus norvegicus (Rat)); assay: [3H]Dopamine ([3H]DA) uptake assay, vesicular preparation; format: biochemical; details: [3H]DA uptake (Ki) VMAT2, rat striatal synaptic vesicles
This section presents compounds with their documented pKi values.
// field semantics: pKi = negative decimal log of concentration (mol/L)

Give its pKi value. Item: COc1ccc(C[C@@H](C)NCCCc2ccccc2)cc1 [Compound 27] 7.35

====

experiment: Microsomal stability assay, human liver microsomes; details: both, human, pooled liver microsomes, pH 7.4, Microsomal stability assays: Half-life
measured.metric: half-life at 0.08 µM (h)
Give just the number in h; leave the unit off.

Recorded results for 5 compounds are shown here.
>  <compound>
CC(Cc1ccc(F)c(F)c1)NCCCc1ccncc1 (centres unmarked)

>  <half-life at 0.08 µM (h)>
1.7

$$$$
>  <compound>
CC(Cc1ccc(NC=O)cc1)N(C=O)CCCc1ccccc1 (centres unmarked)

>  <half-life at 0.08 µM (h)>
0.2

$$$$
>  <compound>
CC(Cc1ccncc1)NCCCc1ccc(F)cc1 (centres unmarked)

>  <half-life at 0.08 µM (h)>
4.8

$$$$
>  <compound>
CC(Cc1ccccc1)NCCCc1ccncc1 (centres unmarked)

>  <half-life at 0.08 µM (h)>
3.6

$$$$
>  <compound>
FCC(Cc1ccccc1)NCCCc1ccccc1 (centres unmarked)

>  <half-life at 0.08 µM (h)>
0.2

$$$$

For the compound shown here, CC(Cc1ccncc1)NCCCc1ccc(Br)cc1 (centres unmarked) , give the reported half-life at 0.08 µM. 3.5

Query (compound): CC(Cc1ccc(F)cc1)NCCCc1ccc2[nH]ccc2c1 (centres unmarked) ; field requested: half-life at 0.08 µM 0.2

Item Nc1ccc(CC(CF)NCCCc2ccc(F)cc2)cc1 (centres unmarked) has what recorded half-life at 0.08 µM? 0.7

So what does the record say about half-life at 0.08 µM for CC(Cc1ccc(N)cc1)NCCCc1ccccc1 (centres unmarked) ? 0.7

For FCC(Cc1ccc(F)cc1)NCCCc1ccc(Cl)cc1 (centres unmarked) , what is its reported half-life at 0.08 µM? 0.9
